Quick list: Percent Effect per entry.
Tested on: Wolbachia pipientis
Experiment: Anti-Wolbachia Cell-Based Screen
Type: functional
Parameters: scale not given: in the data most compounds retested in dose-response had high values
Conditions: 5 µM
About 13,000 (27%) of roughly 48,000 compounds showed an effect of 50% or more. This is one part of the list.
metric: Percent Effect

INSERT INTO measurements (compound, study_system, metric, observed_measurement) VALUES
  ('Cc1nsc(NCc2ccc(S(=O)(=O)N(C)C(C)C)cc2)n1', 'Wolbachia pipientis', 'Percent Effect', '22.68%'),
  ('CC(C)(C)c1cnc(CNCC2CCCN2c2cccnn2)o1 (stereo not drawn)', 'Wolbachia pipientis', 'Percent Effect', '10.11%'),
  ('O=C1CCC2(CCCN(C(=O)Cc3ccccn3)C2)N1 (stereo not drawn)', 'Wolbachia pipientis', 'Percent Effect', '-49.82%'),
  ('Cc1ncccc1CNCC1CCCN1c1cccnn1 (stereo not drawn)', 'Wolbachia pipientis', 'Percent Effect', '86.13%'),
  ('CC(C)c1nnc(CNCC2CCCN2c2cccnn2)o1 (stereo not drawn)', 'Wolbachia pipientis', 'Percent Effect', '-19.57%'),
  ('c1cnnc(N2CCCC2CNCCc2cccs2)c1 (stereo not drawn)', 'Wolbachia pipientis', 'Percent Effect', '5.045%'),
  ('CC(C)N(C)C(=O)C1CSCN1S(=O)(=O)c1ccccc1F (stereo not drawn)', 'Wolbachia pipientis', 'Percent Effect', '0.8894%'),
  ('CCN(C(=O)c1cc2c([nH]c1=O)CCCC2=O)C1CCCCC1', 'Wolbachia pipientis', 'Percent Effect', '14.13%'),
  ('Cc1ccc(CNCC2CCCN2c2cccnn2)s1 (stereo not drawn)', 'Wolbachia pipientis', 'Percent Effect', '110.2%'),
  ('Cc1noc(C)c1CNCC1CCCN1c1cccnn1 (stereo not drawn)', 'Wolbachia pipientis', 'Percent Effect', '5.268%'),
  ('Cc1nc(CNCC2CCCN2c2cccnn2)oc1C (stereo not drawn)', 'Wolbachia pipientis', 'Percent Effect', '-10.17%'),
  ('c1cnnc(N2CCCC2CNCc2ccsc2)c1 (stereo not drawn)', 'Wolbachia pipientis', 'Percent Effect', '-3.279%'),
  ('c1cnnc(N2CCCC2CNCc2cccs2)c1 (stereo not drawn)', 'Wolbachia pipientis', 'Percent Effect', '108.7%');
